target: T1, human Rpa70N (OBN domain of Rpa70, residues 1–120) (human, UniProt P27694 1-120); test: ITC; MicroCal ITC200, 20°C, 20 mM HEPES, 80 mM NaCl, 0.2 mM TCEP, pH 7.5; human polypeptides; settings: both partners purified
T1 construct: Rpa70, human, residues 1-120 (OBN domain); Used in ITC and in the co-crystals; also called Rpa70 OBN; RPA70 OBN; source: E. coli BL21DE3, purified
T1 sequence (P27694 1-120): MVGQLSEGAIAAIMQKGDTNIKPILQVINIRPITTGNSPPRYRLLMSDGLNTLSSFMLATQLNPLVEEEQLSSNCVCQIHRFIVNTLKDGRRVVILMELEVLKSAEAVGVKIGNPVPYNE
property_name: pKd
Bear in mind: pKd is minus log10 of a mol/L concentration; give just that figure.

Asked: Please look up its pKd: MEQLNELELLMEKSFWEEAE (peptide, UniProt P51530 1-20, looked up, Dna2, human, residues 1-20 (α1 helix); also called Dna2 α1 helix; source: E. coli BL21DE3, purified) [human Dna2 α1 (residues 1–20), polypeptide used in ITC]
Given back: 4.47
